All figures here come from patent US20060052419A1.

# experiment summary: Maximum tolerated dose (MTD)
# Set-up: species or system Balb/c mice
# run parameters: Balb/c, mouse, in vivo, po

{"smiles text": "O=C(C=Cc1cccnc1)NCCCCC1CCN(C(=O)c2ccccc2)CC1", "MTD": "~12 mg/kg"}
